Values from the supplement of paper PMC10567573

B1: S100A14 (parent)
chain: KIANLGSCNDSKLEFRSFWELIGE

Variants of: B1
Assay: protein stability index of a GFP-peptide fusion (GPS, HEK-293T) (PSI 1-6); higher = more stable;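 further: lentivirally expressed fusions sorted by FACS into six bins by GFP to DsRed ratio, PSI derived from sequencing read proportions per bin multiplied by bin number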
Conditions: c terminus: a fixed tail appended
Parameter: protein stability index. Scope: all listed entries.
Would you mind answering with just the numeric figure?

Would you please look over these solved cases?
> print(dat)
   mutant.name            quantity.kind  value.measured
1         F15R  protein stability index             2.7
2         K12T  protein stability index               3
3         G23H  protein stability index            2.29

Query: I'd like to know its protein stability index. The variant in question is "L21H"
Result: 1.9

Query: I'd like to know its protein stability index. The variant in question is "G23E"
Result: 2.15

Query: I'd like to know its protein stability index. The variant in question is "E20P"
Result: 1.64
